Data credit: patent EP0908457B1

Test system: Echinochloa oryzoides (Ard.) Fritsch.
Assay text: Preemergence weed control under flooded paddy conditions, ECHORC (Watergrass (Calif.))
Assay type: in vivo
Protocol conditions: Rate 0.2500 kg/ha; preemergence, flooded paddy; rated three to four weeks after treatment
Endpoint: ECHORC herbicidal effect rating

>>> df
                                   compound                         endpoint  endpoint_result
0  Cn1c(C(F)(F)F)cc(=O)n(-c2ccc3snc(-c4ccc(OCC(=O)OC(C)(C)C)cc4)c3c2)c1=O [Example 273]  ECHORC herbicidal effect rating              9.0
1  C#CCOC(=O)COc1c(-c2nsc3ccc(-n4c(=O)cc(C(F)(F)F)n(C)c4=O)cc23)ccc(C)c1C [Example 280]  ECHORC herbicidal effect rating              9.0
2  Cn1c(C(F)(F)F)cc(=O)n(-c2ccc3snc(COCCCCl)c3c2)c1=O [Example 224]  ECHORC herbicidal effect rating              9.0
3  Cc1ccc(OCC(=O)OC(C)(C)C)c(-c2noc3ccc(-n4c(=O)cc(C(F)(F)F)n(C)c4=O)c(Cl)c23)c1 [Example 265]  ECHORC herbicidal effect rating              0.0
